biological target: NADPH oxidase 5 (Homo sapiens); test: NOX5-dependent H2O2 signal modulators, primary screen, NOX inhibitor project, cell-based, HEK293-NOX5, Amplex Red fluorescence (AID 1161); details: HEK293-NOX5, ionomycin, 45 min, higher = more signal
# Lookup of reported z-score keyed by entry
// no unit string in output, number only

Answered examples (6):
1. O=C1[C@H]2[C@H]3[C@H](O)[C@H](O)CC(=NOCc4ccccc4)[C@H]3CC[C@H]2C(=O)N1c1ccc(F)cc1F: -0.471
2. NC(=O)NCC#Cc1ccc2c(c1)[C@]1(C(=O)N2)[C@H](c2ccc(O)cc2)N2[C@H](c3ccccc3)[C@H](c3ccccc3)OC(=O)[C@H]2[C@@H]1C(=O)N1CCCCCCC1: 1.2
3. CCOC(=O)C1=CCC(c2cc3ccccc3[nH]2)NC1 (stereo not given): 0.287
4. CCc1cc2c(nc1CC)CCN(CCC(C)=NOC[C@@H](O)COCc1ccco1)C2: 1.84
5. O=C1CCCC=C1C(O)CCOCc1ccccc1 (stereo not given): -0.00615
6. COCCCNC(=O)[C@]1(CCC(=O)OC(C)(C)C)N=C(c2ccc(OCCCO)cc2)O[C@@H]1c1ccccc1N=[N+]=[N-]: -2.19

input: Request the reported z-score associated with CC1CC/C=C\[C@H]2OC34C=CCN(Cn5nnc6ccccc65)C(=O)[C@H]3N(CCO)C(=O)[C@@H]4C2C(=O)O1 (stereo not given in full)
output: 2.67

input: // repeat for CC(CCN1CCCCc2nc(C)c(C)cc21)=NOC(C)CN1CCCCc2nc(C)c(C)cc21 (stereo not given) and report
output: -1.31

input: Can you check COc1ccc(COC(=O)NN=C2C[C@@H](O)[C@@H](O)[C@@H]3[C@@H]4C(=O)N(c5ccc(F)cc5F)C(=O)[C@@H]4CC[C@@H]23)cc1 next?
output: -1.12

input: Another molecule: CCCC[C@H]1OB(O)C[C@H]2C1=C(C)C[C@H]1C(=O)N(C)C(=O)[C@H]12
output: -0.235

input: Same again, this time with CC[C@@H](c1ccccc1)n1c(=O)n2n(c1=O)[C@H]1[C@H](O)[C@@H]3O[C@@H]3C(=NOCC=C(C)CCC=C(C)C)[C@H]1CC2
output: -1.35

input: Check COC(=O)[C@@H]1CC[C@H](C)[C@@H](c2ccc(C)cc2)N1C(=O)c1ccc(C=NOC[C@@H](O)COCc2ccco2)cc1 too.
output: 0.254

input: Now try C=CCOC(=O)[C@H]1[C@@H]2C(=O)O[C@@H](c3ccccc3)[C@@H](c3ccccc3)N2[C@@H](c2ccc(OCCOC(=O)[C@H]3C[C@H]4C(=O)N5CCC[C@H]5C(=O)N4[C@H]3c3cccc(OCCO)c3)cc2)[C@]12C(=O)Nc1ccc(I)cc12 .
output: 0.261

input: Moving on to the next molecule: CC(CCN1CCc2nc(-c3ccccc3)c(-c3ccccc3)cc2C1)=NOC(C)CN1CCCCc2nc(C)c(C)cc21 (stereo not given)
output: 0.108

input: Same question for Cc1ccc(S[C@]2(C(=O)NCC(F)(F)F)CC(=O)N(Cc3ccccc3Cl)[C@@H]2c2ccc(CO)cc2I)cc1 please.
output: 0.799
